- assayed-system: T1, Mcl-1 (biotinylated pro-survival Bcl-2 family protein) (UniProt Q07820 171-327, limits assumed, biotinylated (co-expressed E. coli biotin ligase BirA))
- T1 construct: In the functional rows the target is the endogenous Mcl-1 of the human cancer cell lines
- T1 sequence (Q07820 171-327 limits assumed): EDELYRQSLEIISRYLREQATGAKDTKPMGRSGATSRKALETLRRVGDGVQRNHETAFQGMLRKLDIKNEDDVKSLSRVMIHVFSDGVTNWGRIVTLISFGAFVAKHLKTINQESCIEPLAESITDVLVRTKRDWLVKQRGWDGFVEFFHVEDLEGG
- assay-method-text: flow cytometry of E. coli displaying the peptide on eCPX, biotinylated target + streptavidin-PE; apparent Kd
Where no end group is shown, it is not given here. eCPX = enhanced circularly permuted OmpX display scaffold; linker = not defined here
Lab note - cut at 0.05 µM for Kd: T if strictly below, F if not.

Example entries begin here.
WIAQELRRIGDEFN-{linker-eCPX} (reading uncertain, also called WT; Bim WT; not shown: eCPX (enhanced circularly permuted OmpX) display scaffold and its linker, fused C-terminal to the peptide) [wild-type Bim BH3 14-mer peptide (residues 147-160) displayed on eCPX] | T
WIAQQLRRIGDEFN (not fully specified, also called pseudo-wild-type Bim; Bim E151Q; not shown: eCPX display scaffold and the linker to it) [Bim BH3 14-mer E151Q (pseudo-wild-type) displayed on eCPX] | T
WLAQLLRRYGDEFN (also: displayed as fusion to eCPX scaffold (letters not given here), Clone selected against Bcl-xL; not shown: eCPX display scaffold and the linker to it) [Bim BH3 14-mer variant X2-8 displayed on eCPX] | F

## Task Decide: Kd of WLAQLLRRIGDEIN-{linker-eCPX} (reading uncertain; also: printed as Trp-Leu-Ala-Gln-Leu-Leu-Arg-Arg-Ile-Gly-Asp-Glu-Ile-Asn, Clone selected against Mcl-1; not shown: eCPX display scaffold and its linker, fused C-terminal to the peptide) [Bim BH3 14-mer variant M2-4 displayed on eCPX] strictly below 0.05 µM?
## Result T

## Task Decide: Kd of WVAQLLRRIGDEVN-{linker-eCPX} (reading uncertain; also: printed as Trp-Val-Ala-Gln-Leu-Leu-Arg-Arg-Ile-Gly-Asp-Glu-Val-Asn, Clone selected against Mcl-1; not shown: eCPX display scaffold and its linker, fused C-terminal to the peptide) [Bim BH3 14-mer variant M2-2 displayed on eCPX] strictly below 0.05 µM?
## Result T

## Task Decide: Kd of WVAQWLRRWGDEFN (also: displayed as fusion to eCPX scaffold (letters not given here), Clone selected against Bcl-xL; not shown: eCPX display scaffold and the linker to it) [Bim BH3 14-mer variant X2-3 displayed on eCPX] strictly below 0.05 µM?
## Result F
